Entry source: patent US20220177604A1

target: T1, human immunoglobulin E (hIgE) (human, UniProt P01854-1 1-428); assay: SPR (Biacore) on hIgE
T1 construct: also called human IgE; Native IgE (Abcam)
T1 sequence (P01854 whole entry): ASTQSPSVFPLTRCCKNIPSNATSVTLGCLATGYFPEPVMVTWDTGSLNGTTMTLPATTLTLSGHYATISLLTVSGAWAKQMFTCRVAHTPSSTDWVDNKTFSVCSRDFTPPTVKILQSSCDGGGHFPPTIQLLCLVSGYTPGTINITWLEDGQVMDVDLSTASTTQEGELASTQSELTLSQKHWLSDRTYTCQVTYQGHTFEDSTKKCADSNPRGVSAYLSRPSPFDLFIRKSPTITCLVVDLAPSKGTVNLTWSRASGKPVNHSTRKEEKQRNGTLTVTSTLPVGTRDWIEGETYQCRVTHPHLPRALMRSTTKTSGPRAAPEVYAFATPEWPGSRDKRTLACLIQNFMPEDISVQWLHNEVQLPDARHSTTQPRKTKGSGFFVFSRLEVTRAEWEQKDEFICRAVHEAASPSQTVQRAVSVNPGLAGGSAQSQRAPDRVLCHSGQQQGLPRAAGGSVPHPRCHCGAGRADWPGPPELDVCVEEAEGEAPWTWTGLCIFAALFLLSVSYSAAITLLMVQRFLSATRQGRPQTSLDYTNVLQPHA
Please use T for KD Ratio pH 5.5/pH 7.4 under 4 and F for everything else, ties included.

# Binder, Cat
data = [
    ("CL-2C mAb 27 (antibody, V domains shown, also called VK50H + VH33H100CH) VH: QVQLVQSGAEVMKPGSSVKVSCKASGYTFSWYHLEWVRQAPGHGLEWMGEIDPGTFTTNYNEKFKARVTFTADTSTSTAYMELSSLRSEDTAVYYCARFSHFSGSNHDYFDYWGQGTLVTVSS VL: EIVMTQSPATLSVSPGERATLSCRASQSIGTNIHWYQQKPGQAPRLLIYHASESISGIPARFSGSGSGTEFTLTISSLQSEDFAVYYCQQSWSWPTTFGGGTKVEIK", "F"),
    ("CL-2C mAb 9 (antibody, V domains shown, also called VK50H92D89H + VH33H100AH) VH: QVQLVQSGAEVMKPGSSVKVSCKASGYTFSWYHLEWVRQAPGHGLEWMGEIDPGTFTTNYNEKFKARVTFTADTSTSTAYMELSSLRSEDTAVYYCARFSHFSGHNYDYFDYWGQGTLVTVSS VL: EIVMTQSPATLSVSPGERATLSCRASQSIGTNIHWYQQKPGQAPRLLIYHASESISGIPARFSGSGSGTEFTLTISSLQSEDFAVYYCHQSDSWPTTFGGGTKVEIK", "T"),
    ("CL-2C mAb 6 (antibody, V domains shown, also called VK50H92D89H + VH58H100BH) VH: QVQLVQSGAEVMKPGSSVKVSCKASGYTFSWYWLEWVRQAPGHGLEWMGEIDPGTFTTHYNEKFKARVTFTADTSTSTAYMELSSLRSEDTAVYYCARFSHFSGSHYDYFDYWGQGTLVTVSS VL: EIVMTQSPATLSVSPGERATLSCRASQSIGTNIHWYQQKPGQAPRLLIYHASESISGIPARFSGSGSGTEFTLTISSLQSEDFAVYYCHQSDSWPTTFGGGTKVEIK", "F"),
    ("CL-2C mAb 40 (antibody, V domains shown, also called VKWT + VHWT) VH: QVQLVQSGAEVMKPGSSVKVSCKASGYTFSWYWLEWVRQAPGHGLEWMGEIDPGTFTTNYNEKFKARVTFTADTSTSTAYMELSSLRSEDTAVYYCARFSHFSGSNYDYFDYWGQGTLVTVSS VL: EIVMTQSPATLSVSPGERATLSCRASQSIGTNIHWYQQKPGQAPRLLIYYASESISGIPARFSGSGSGTEFTLTISSLQSEDFAVYYCQQSWSWPTTFGGGTKVEIK", "T"),
]
